Attribute: EC50
experimental.system: IP (Homo sapiens, UniProt P43119)
Sequence (P43119 whole entry): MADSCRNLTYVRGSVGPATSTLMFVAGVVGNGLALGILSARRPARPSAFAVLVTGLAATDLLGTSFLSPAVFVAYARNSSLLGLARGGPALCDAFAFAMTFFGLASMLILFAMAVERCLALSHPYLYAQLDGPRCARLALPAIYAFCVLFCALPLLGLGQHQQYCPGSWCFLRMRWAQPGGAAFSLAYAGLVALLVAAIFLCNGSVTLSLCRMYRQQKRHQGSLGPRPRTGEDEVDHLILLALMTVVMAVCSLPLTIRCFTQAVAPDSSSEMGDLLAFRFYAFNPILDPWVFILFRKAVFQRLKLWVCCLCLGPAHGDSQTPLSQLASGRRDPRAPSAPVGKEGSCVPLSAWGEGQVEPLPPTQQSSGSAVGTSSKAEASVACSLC
protocol.text: HTRF cAMP assay, recombinant human IP receptor stably expressed in CHO-K1 cells
Assay type: cell-based
Design: expressed in transfected cells
applied.conditions: HTRF (cAMP) human IP receptor assay; mean of at least three determinations
Experimental: The new compounds were tested for functional agonist activity in a standard (Cisbio) cAMP assay using recombinant IP or DP1 receptors stably expressed in CHO-K1 cells. […] For development of cAMP accumulation assays, recombinant IP or DP1 receptors were stably expressed in CHO-K1 cells and clonal cell lines derived following standard protocols. […] Plates were then incubated at room temperature for 1 h prior to reading. […]

{"smi": "Cc1ccc(N(C(=O)OC[C@H]2CC[C@H](COCC(=O)O)CC2)c2ccccc2)cc1", "endpoint.unit": "nM", "EC50": 3.9}
{"smi": "COc1cccc(N(C(=O)OC[C@H]2CC[C@H](COCC(=O)O)CC2)c2ccccc2)c1", "endpoint.unit": "nM", "EC50": 12}
{"smi": "O=C(O)COC[C@H]1CC[C@H](COC(=O)N(c2ccccc2)c2ccc(F)c(F)c2)CC1", "endpoint.unit": "nM", "EC50": 10}
{"smi": "O=C(O)COC[C@H]1CC[C@H](COC(=O)N(c2cccc(F)c2)c2ccc(Cl)c(F)c2)CC1", "endpoint.unit": "nM", "EC50": 23}
{"smi": "O=C(O)COC[C@H]1CC[C@H](COC(=O)N(c2ccc(F)cc2)c2cccc(F)c2)CC1", "endpoint.unit": "nM", "EC50": 7.8}
{"smi": "O=C(O)COC[C@H]1CC[C@H](COC(=O)N(c2ccccc2)c2ccc(F)c(Cl)c2)CC1", "endpoint.unit": "nM", "EC50": 38}
{"smi": "O=C(O)COC[C@H]1CC[C@H](COC(=O)N(c2ccc(F)cc2)c2ccc(F)cc2)CC1", "endpoint.unit": "nM", "EC50": 41}
{"smi": "COc1ccc(N(C(=O)OC[C@H]2CC[C@H](COCC(=O)O)CC2)c2ccccc2)cc1", "endpoint.unit": "nM", "EC50": 3.3}
{"smi": "COc1ccc(N(C(=O)OC[C@H]2CC[C@H](COCC(=O)O)CC2)c2cccc(F)c2)cc1", "endpoint.unit": "nM", "EC50": 5.2}
{"smi": "COc1ccc(N(C(=O)OC[C@H]2CC[C@@H](COCC(=O)O)CC2)c2ccccc2)cc1", "endpoint.unit": "nM", "EC50": 1630}
{"smi": "O=C(COC[C@H]1CC[C@H](COC(=O)N(c2ccccc2)c2ccc(Cl)cc2)CC1)NCCS(=O)(=O)O", "endpoint.unit": "nM", "EC50": 930}
{"smi": "O=C(O)COC[C@H]1CC[C@H](COC(=O)N(c2ccc(O)cc2)c2ccc(Cl)cc2)CC1", "endpoint.unit": "nM", "EC50": 25}
{"smi": "O=C(COC[C@H]1CC[C@H](COC(=O)N(c2ccc(O)cc2)c2ccc(Cl)cc2)CC1)NCCS(=O)(=O)O", "endpoint.unit": "nM", "EC50": 1050}
{"smi": "O=C(O)COC[C@H]1CC[C@@H](COC(=O)N(c2ccccc2)c2ccccc2)CC1", "endpoint.unit": "nM", "EC50": 54}
{"smi": "O=C(O)COC[C@H]1CC[C@H](COC(=O)N(c2ccccc2)c2cccc(F)c2)CC1", "endpoint.unit": "nM", "EC50": 8.7}
